# assayDetails: yeast display, Sf9 membrane polyspecificity reagent, FACS + sequencing; frameworks hold sequencing errors

{"sequenceInput": "QVQLVESGGGLVQAGGSLRLSCAASGFTFYRNAMGWYRQAPGKERELVAGISKRGGSTYYADSVKGRFTISRDNAKNTVYLQMNSLKPEDTAVYYCARGGYPGSAEYDYWGQGTQVTVSS", "polyreactivity (PSR sort gate)": "high polyreactivity"}
{"sequenceInput": "QVQLVESGGGLVQAGGSLRLSCAASGRTFYRYAMGWYRQAPGKERELVAVISTDGSSTYYADSVKGRFTISRDNAKNTVYLLMNSLKPEDTAVYYCAARSLAWLFGRNYWGQGTQVTVSS", "polyreactivity (PSR sort gate)": "high polyreactivity"}

----------
# assayDetails: yeast display, Sf9 membrane polyspecificity reagent, FACS + sequencing; frameworks hold sequencing errors
observedProperty: polyreactivity (PSR sort gate)

In the examples that follow, each entry is paired with its recorded polyreactivity (PSR sort gate).
{"sequenceInput": "QVQLVESGGGLVQAGGRHPVSCAASGRTIAYNAKGLYRQATGKERELVASITSGGSTNYADSVKGRFTISRDYAKNTVYLQMNSLKQEHTADYYFNKDGKYHRVLFEYWGQGTQVTVSS", "polyreactivity (PSR sort gate)": "low polyreactivity"}
{"sequenceInput": "QVQLVESGGGLVQAGGSLRLSCAASGRIFVYNAMGWYRQAPGKERQLVAAIRNDGSTNYADSVKGRFTISRDNAKNTVYLLMNSLKPEDTAVYYCAKSVTGWRGLWYTPRNYYWGQGTQVTVSS", "polyreactivity (PSR sort gate)": "high polyreactivity"}
{"sequenceInput": "QVQLVESGGGLVQAGGSLRLSCAASGSIFPAYAMGWYRQAPGKERELVAAITDRGGYTYYADSVKGRFTISRDNAKNTVYLQMNSLKPEDT", "polyreactivity (PSR sort gate)": "low polyreactivity"}
{"sequenceInput": "QVQLVESAGGLVQAGVSLRLSCAASGFTFSPNAMGWYRQPPGKERELVAAIDWSGDRTYYADSVKGRFTISRDNAKNTVYLQMNSLKPEDTAVYYCAKTNFSQSSRYNYDYWGQGTQVTVSS", "polyreactivity (PSR sort gate)": "low polyreactivity"}
{"sequenceInput": "QVQLVDSGGGLVQAGGSLRLSCAASGYTFDRYAMGWYRQAPGKERELVAAISVRGGRTHYADSVKGRFTISRDNAKNTVYLQMNSLKPEDTAVYYCNKDSKGGYSVPHDYWGQGTQVTVSS", "polyreactivity (PSR sort gate)": "low polyreactivity"}
{"sequenceInput": "QVQLVESGGGLVQAGGSLRLSCAASASNSNGMTWYGIDRRLGRKELVAGIRSAGSTNYADSVKGRFTISRDNAKNTFYLQMNSLKPEDTAGYYCAKDYRWVWRKYGYWGQGTQVTVSS", "polyreactivity (PSR sort gate)": "low polyreactivity"}

Here's the next entry for you.
QUERY: Would you kindly share the measured polyreactivity (PSR sort gate) for QVQLVESGGGLVQAGGSLRLSCAASGSTFGYNAMGWYRQAPGKERELVAAISRGGRITYYADSVKGRFTISRDNAKNTVYLQMNSLKQEDTAVYNCAARVQWRGYGYYYWGQGTQVTVSS ?
RESULT: high polyreactivity

----------
# assayDetails: yeast display, Sf9 membrane polyspecificity reagent, FACS + sequencing; frameworks hold sequencing errors
observedProperty: polyreactivity (PSR sort gate)

{"sequenceInput": "QVQLVESGGGLVQAGGSLRLSCAASGSTIGSYAMGWYRQAPGKERELVAVITGGGDTNYADSVKGRFTISRDNAKNTVYLQMNSLKPEDTAVYYCAAEGSFYRYHVGSDYWGQGTQLTVSS", "polyreactivity (PSR sort gate)": "low polyreactivity"}
{"sequenceInput": "QVQLVESGGGLVQAGGSLRLSCAASGITIGRNTMGWSRQAPRKERELVAAIDSGGNTYADSVKGRFSISRDNAMNTVYLQMNSLKPEDTAVYYCAVDGGEFSSYGFWGQGTQVTVSS", "polyreactivity (PSR sort gate)": "low polyreactivity"}
{"sequenceInput": "QDQLVESCGGLVPAGGSLRLSCPASGPIFTYYTMGSYRQAPGKERELVAAITVRGGRTYYADSVKGRFTISRDNEKNTVYLQMNSLKPEDTAVYYCAARGLVRSYDYWGQGTQVSVSS", "polyreactivity (PSR sort gate)": "high polyreactivity"}
{"sequenceInput": "QVQLVESGGGLVQAGGSLRLSCAASGRIFTYYTKGWSRQAPGKERELVAAITRGGITNYADSVKGRFTISRDNAKNTVYLQMNSLKPEDTAVYYCNAVARVYSEGIRYGYWGQGTQVTVSS", "polyreactivity (PSR sort gate)": "high polyreactivity"}

QUERY: Would you kindly share the measured polyreactivity (PSR sort gate) for QVQLVESGGCLVQAGGSLRLSCAASGRTFYTNGMGWYRQAPGKEREFVAGITYRGGGTYYADSVKGRFTISRDNAQNTVYLQMNSLKPEDTAVYYCAARYYRDYRWYTYAYDYWGQGTQVTVSS ?
RESULT: high polyreactivity

----------
# assayDetails: yeast display, Sf9 membrane polyspecificity reagent, FACS + sequencing; frameworks hold sequencing errors

{"sequenceInput": "QVQLVESGGGLVQAGGSLRLSCAASGSIFDAYMGWYRQAPGKERELVAGITRSGGSTYYADSVKGRFTISRDNAKNSVYLQMNSLKPEDTAVYYCAADYSSDGDYWGQGTQVTVSS", "polyreactivity (PSR sort gate)": "low polyreactivity"}
{"sequenceInput": "QVQLVESGGGLVQAGGSLRLSCAASGRIFLFYAMGGYRQAPGKERELVAAISSTDDTYYADSVKGRFTISRDNAKNTVYLQMNSLKPEDTAVYYCAAYSIISQSEMYYWGQGTQVTVSS", "polyreactivity (PSR sort gate)": "low polyreactivity"}

----------
# assayDetails: yeast display, Sf9 membrane polyspecificity reagent, FACS + sequencing; frameworks hold sequencing errors
observedProperty: polyreactivity (PSR sort gate)

In the examples that follow, each entry is paired with its recorded polyreactivity (PSR sort gate).
{"sequenceInput": "QVQLVESGGGLVQAVGSLRLSCAACGRILWYYTMGWYRQAPAKERELVAAISGRGSSTYYADSVKGRFTISRDNAKNTVYLQMNSLKPEDTAVYYCNAALRTRRGDYDYWGQGTQVTVSS", "observedProperty": "polyreactivity (PSR sort gate)", "dataValue": "high polyreactivity"}
{"sequenceInput": "QVQLEESGGCLVQEGGSLRLSCAASGIIFTSNTLGWYRQAPGKEREFVASINWNGSSTYADSVKGRFTISRDNAKNTVYLQMNSLKPEDTAVYYCNADYNRNSVQFSLYDYWGQGTQVTVSS", "observedProperty": "polyreactivity (PSR sort gate)", "dataValue": "low polyreactivity"}
{"sequenceInput": "QVQLVESGGGLVQAGGSLRLSCAASGRIVFYAMGWYRQAPGKERELVAAITGSGGRTYYADSVKGRFTISRDNAKITVYLQMNSLKPEDTAVYYCAARKWRHGYQGDYWGQGTQVTVSS", "observedProperty": "polyreactivity (PSR sort gate)", "dataValue": "high polyreactivity"}
{"sequenceInput": "QVQLVESGGGFVQAGGSLRLSSAASGSTFYRYAMGWYRQAPGKEREFVAAISRSGGSTYYADSVKRRFTLSRDNAKNTVYLQMNSLKPEDTAVEYCNKYYWYPYGRAQDYGYWGQGTQVTVSS", "observedProperty": "polyreactivity (PSR sort gate)", "dataValue": "high polyreactivity"}
{"sequenceInput": "QVQLVESGGGLVQAGGSLRLSCAASGRTFSPYMGWYRQAPGKEGELVAAISKSGGRTYYADSVKGRFTISRDNAKNTVYLQMNSLKPEDTAVYYCATTGNNYYYALYGYWGQGTQVTVSS", "observedProperty": "polyreactivity (PSR sort gate)", "dataValue": "low polyreactivity"}
{"sequenceInput": "EEELVESGGGLVQAGGSLRLSCAASGSTFLVYAMGWYRQAPGKERELVAVITYSTVRTYYADSVKGRFTISRDNAKNTVYLQMNSLKPEDTAVYYCNADIEFAVLGQGMDYWGQGTQVTVSS", "observedProperty": "polyreactivity (PSR sort gate)", "dataValue": "low polyreactivity"}
{"sequenceInput": "QVQLVESGGGLVQAGGSLRLSCAASGRIFGTNAMGWYRQAPGKERELVADITSGGSTNYADSVKGRFTISRDNAKNTVYLQMNSLTPEDTAVYYCAADVIGDLRWYRDEYWGQGTQVTVSS", "observedProperty": "polyreactivity (PSR sort gate)", "dataValue": "low polyreactivity"}
{"sequenceInput": "QVQLVESGGGLVQAGGSLRLSCAASGSIFTPNVMGWYRQEPGKERELVAAISQRGGSTYYADSVKGRFTLSRDNAKNTVYLQMNSLKPEDTAVYYCNKDNAVDRLPWFQVTYDYWGQGTQVTVSS", "observedProperty": "polyreactivity (PSR sort gate)", "dataValue": "low polyreactivity"}

QUERY: Would you kindly share the measured polyreactivity (PSR sort gate) for QVELVESGGGLVQPGGRLRLSCAASGRIFRYNTMGWYRQAPGKEREFVAAITQRGVNTYYADSVKGRFTISRDNAKNTVYLQRNSLKPEDTAVYYCNAKRYSYWIYRAYDYWGQGTQVTVSS ?
RESULT: low polyreactivity

QUERY: Would you kindly share the measured polyreactivity (PSR sort gate) for QVQLVESGGGLVQAGGSLRISCAASGIIFYTYVMGWYRQAPGKEREFVAGISTSGGRTDYADSVKGRFTISRDNAKNTVYLQMNSLKPEDTAVYYCNADYWQWYSYWYDYWGQGTQVTVSS ?
RESULT: high polyreactivity

QUERY: Would you kindly share the measured polyreactivity (PSR sort gate) for QVQLVESGGGLVQAGGSLRLSCAASGRIFYTYAMGWYRQSPGKERELVAAISWGGGRTYYADSVKGRFTISRDNAKNTVYLQMNSLKPEDTAVYYCNAVSLKFTRKYDYWGQGTQVTVSS ?
RESULT: high polyreactivity
